The following compounds are shown together with reported TGI values.
# System: SK-OV-3 ovarian
# Assay explanation: NCI tumour cell line growth inhibition, 48 h

Compound: O=[N+]([O-])/C(C(Cl)=C(Cl)Cl)=C1/OCCS1
TGI: > 100 µM

Compound: COC(=O)c1cc(-c2c[nH]cc2C(=O)OCc2ccccc2)cn1S(=O)(=O)c1ccc(C)cc1
TGI: > 100 µM

Compound: O=C1CCC2(c3ccccc3)Nc3cc(Cl)ccc3N12 (stereo not given)
TGI: 85.1 µM

Compound: CCc1cc2c(cc1CCCC(=O)O)CC1(Cc3ccc(C(=O)O)cc3C1)C2 (stereo not given)
TGI: > 100 µM

Compound: O=C1N[C@@H]([C@H](CCCCCO)OC(=O)c2ccccc2)CO1
TGI: > 100 µM
